Reference source: ChEMBL document CHEMBL4346654

System: Streptococcus pyogenes
Test: Antibacterial activity against MLS-resistant Streptococcus pyogenes 01-968 expressing inducible ermB gene assessed as reduction in microbial growth by CLSI based two-fold broth dilution method
Type: functional
PARAMETER_MEASURED: MIC (µg/mL)
Return type: number; implicit unit µg/mL.

Prompt line: What measured MIC goes with `CC[C@H]1OC(=O)[C@H](C)[C@@H](O[C@H]2C[C@@](C)(OC)[C@@H](O)[C@H](C)O2)[C@H](C)[C@@H](O[C@@H]2O[C@H](C)C[C@H](N(C)C)[C@H]2O)[C@](C)(OC)C[C@@H](C)C(=O)[C@H](C)[C@@H](O)[C@]1(C)O` ?
Response line: 8
